# Measured target: T1, Human MuSK (R&D Systems, cat. 10189-MK, histidine tag) (human, UniProt O15146 24-495)
# T1 construct: Bought protein; also called human monomeric MuSK-6xhis; not shown: histidine tag (6xhis)
# T1 sequence: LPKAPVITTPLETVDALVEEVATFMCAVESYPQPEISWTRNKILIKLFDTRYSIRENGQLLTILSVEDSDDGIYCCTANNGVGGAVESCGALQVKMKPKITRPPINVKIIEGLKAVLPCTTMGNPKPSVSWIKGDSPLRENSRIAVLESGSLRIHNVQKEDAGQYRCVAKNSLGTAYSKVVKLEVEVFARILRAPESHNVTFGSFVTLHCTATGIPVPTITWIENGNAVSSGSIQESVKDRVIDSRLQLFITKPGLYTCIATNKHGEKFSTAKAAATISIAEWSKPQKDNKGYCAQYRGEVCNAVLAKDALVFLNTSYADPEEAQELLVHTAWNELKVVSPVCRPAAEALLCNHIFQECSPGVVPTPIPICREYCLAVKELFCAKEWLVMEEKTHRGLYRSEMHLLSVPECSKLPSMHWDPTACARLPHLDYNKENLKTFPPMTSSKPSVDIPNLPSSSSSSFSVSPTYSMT
# Protocol details: SPR (Biacore), MuSK-coated chip, antibody alone (run of first antibody 3D9b)
Property measured: amplitude of prelead without presaturating MuSK (RU)
Just the number in RU, nothing appended.

Consider the following illustrative entries.
INSERT INTO assay_data (binder, quantity_unit, recorded_number) VALUES
  ('3B5 (antibody, V domains shown, also called 3B5wt) VH: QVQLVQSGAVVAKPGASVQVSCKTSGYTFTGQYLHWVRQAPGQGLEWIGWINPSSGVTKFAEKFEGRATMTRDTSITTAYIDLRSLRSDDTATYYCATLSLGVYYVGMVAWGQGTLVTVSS VL: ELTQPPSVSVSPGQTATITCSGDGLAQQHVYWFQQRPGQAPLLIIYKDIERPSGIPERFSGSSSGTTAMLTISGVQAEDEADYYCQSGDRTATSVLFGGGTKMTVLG', 'RU', 399),
  ('3F6c (antibody, human IgG1, kappa, L234A L235A, V domains shown) VH: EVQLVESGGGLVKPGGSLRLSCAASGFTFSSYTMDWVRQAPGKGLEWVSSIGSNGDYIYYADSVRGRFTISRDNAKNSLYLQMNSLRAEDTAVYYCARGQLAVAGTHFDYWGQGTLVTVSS VL: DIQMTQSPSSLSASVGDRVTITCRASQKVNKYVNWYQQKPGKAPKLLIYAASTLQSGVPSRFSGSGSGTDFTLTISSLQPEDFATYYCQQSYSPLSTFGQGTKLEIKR', 'RU', 235),
  ('3D10a (antibody, human IgG1, kappa, L234A L235A, V domains shown) VH: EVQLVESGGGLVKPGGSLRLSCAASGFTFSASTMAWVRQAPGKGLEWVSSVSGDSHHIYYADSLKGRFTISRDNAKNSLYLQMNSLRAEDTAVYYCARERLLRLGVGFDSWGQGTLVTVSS VL: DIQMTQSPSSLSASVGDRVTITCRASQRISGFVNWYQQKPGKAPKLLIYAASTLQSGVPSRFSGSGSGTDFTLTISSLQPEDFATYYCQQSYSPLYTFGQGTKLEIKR', 'RU', 189);

Ask: Field request: amplitude of prelead without presaturating MuSK (RU) | item: 4D3 (antibody, human IgG1, kappa, L234A L235A, V domains shown) VH: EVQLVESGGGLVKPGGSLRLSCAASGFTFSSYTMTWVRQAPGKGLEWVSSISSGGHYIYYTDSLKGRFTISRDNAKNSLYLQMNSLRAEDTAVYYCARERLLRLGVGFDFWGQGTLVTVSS VL: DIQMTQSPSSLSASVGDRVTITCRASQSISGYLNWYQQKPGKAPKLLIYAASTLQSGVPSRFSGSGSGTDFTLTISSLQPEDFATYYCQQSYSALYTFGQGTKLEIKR
Reply: 188
